# MEASUREMENT_TARGET: 5-hydroxytryptamine receptor 2C (Homo sapiens)
# ASSAY_INFO: Agonist activity at human 5HT2C receptor stably expressed in Flp-In-T-REx-293 cells assessed as maximal Gq-mediated calcium flux by Fluo-4 direct dye based FLIPR Tetra assay relative to control
# Type: functional, cell-based
# TEST_PARAMETERS: filed as agonist
REPORTED_PROPERTY: Emax (%)

Oc1ccc(C2NCCc3c2[nH]c2ccc(Cl)cc32)c(O)c1 (stereo unspecified) :: 102
Oc1ccc(C2NCCc3c2[nH]c2ccc(O)cc32)cc1 (stereo unspecified) :: 99.4
COc1ccccc1C1NCCc2c1[nH]c1ccc(F)cc21 (stereo unspecified) :: 94.3
Cc1ccc(C2NCCc3c2[nH]c2ccc(Cl)cc32)c(C)c1 (stereo unspecified) :: 99.2
Cc1ccc(C2NCCc3c2[nH]c2ccc(F)cc32)c(C)c1 (stereo unspecified) :: 104
Oc1ccc2[nH]c3c(c2c1)CCNC3c1cc(F)ccc1O (stereo unspecified) :: 101

From: ChEMBL document CHEMBL5131517
